Entries and their pKd
# testTarget: human NKp30 (human) (UniProt O14931)
# Sequence (O14931 19-135 limits assumed): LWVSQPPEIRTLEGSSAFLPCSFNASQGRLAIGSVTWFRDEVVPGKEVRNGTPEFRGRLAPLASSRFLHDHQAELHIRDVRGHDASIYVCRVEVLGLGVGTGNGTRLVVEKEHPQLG
# experimentNotes: BLI, immunoligand on anti-hFc tip
The read-out pKd is expressed as -log10 of concentration in moles per litre.

[
  {
    "binder": "ΔB7-H6_S3#23-SEED-PGLALA (bispecific antibody, part only; not given: SEED Fc chains and hu225 Fab, part only) chain, part: DLKVEMMAGGTQITPLNDNVTIFCNIFYSQPLNITEMGITWFWKSLTFDKEVKVFEFYGDHQEAFRPGAIVSPWRLKSGDASLRLPGIQLEEAGEYRCEVVVTPYKAQGTVQLEVVASPAS",
    "pKd": 6.96
  },
  {
    "binder": "ΔB7-H6_S3#5-SEED-PGLALA (bispecific antibody, part only; not given: SEED Fc chains and hu225 Fab, part only) chain, part: DLKVEMMAGGTQITPLNDNVTIFCNIFYSQPLNITVMGITWFWKSLTFDKEVKVFEFWGDHQEAFRPGAIVSPWRLKSGDASLRLPGIQLEEAGEYRCEVVVTPYKAQGTVQLEVVASPAS",
    "pKd": 7.65
  },
  {
    "binder": "ΔB7-H6_S3#10-SEED-PGLALA (bispecific antibody, part only; not given: SEED Fc chains and hu225 Fab, part only) chain, part: DLKVEMMAGGTQITPLNDNVTIFCNIFYSQPLNITSMGITWFWKSLTFDKEVKVFEFYGDHQEAFRPGAIVSPWRLKSGDASLRLPGIQLEEAGEYRCEVFVTPYKAQGTVQLEVVASPAS",
    "pKd": 6.84
  }
]

Now turn to the next binder.
Q) Can you look up the measured pKd of ΔB7-H6_S2#2-SEED-PGLALA (bispecific antibody, part only; not given: SEED Fc chains and hu225 Fab, part only) chain, part: DLKVEMMAGGTQITPLNDNVTIFCNIFYSQPLNITSMGITWFWKSLTFDKEVKVFEFWDDHQEAFRPGAIVSPWRLKSGDASLRLPGIQLEEAGEYRCEVVVTPYKAQGTVQLEVVASPAS for me?
A) 6.66

Data provenance is patent US20230287082A1.
